Values from patent US20180235221A1

- Test system: Qol resistant Alternaria solani isolate (141)
- assay-overview: Microtest, activity against early blight pathogen Alternaria solani
- Type: cell-based
- condition-set: single active compound, 0.016 ppm; MTP, 405 nm, 7 days after inoculation
Known Observed efficacy of a selection of compounds
endpoint: Observed efficacy (%)

# query-smiles, endpoint, number
data = [
    ("CC(=NOCc1c(C)cccc1-n1nnn(C)c1=O)c1cccc(C(F)(F)F)c1", "Observed efficacy", 0),
    ("Cn1nnn(-c2cccc(Br)c2COc2ccn(-c3ccc(Cl)cc3)n2)c1=O", "Observed efficacy", 0),
    ("Cn1nnn(-c2cccc(F)c2COc2ccn(-c3ccc(Cl)cc3)n2)c1=O", "Observed efficacy", 0),
    ("Cc1cccc(-n2nnn(C)c2=O)c1COc1ccn(-c2ccc(Cl)cc2)n1", "Observed efficacy", 0),
    ("Cn1nnn(-c2cccc(F)c2COc2ccn(-c3ccc(Cl)cc3Cl)n2)c1=O", "Observed efficacy", 6),
    ("Cn1nnn(-c2cccc(Cl)c2COc2ccn(-c3ccc(Cl)cc3)n2)c1=O", "Observed efficacy", 0),
]
